test: soluble fraction after stress (log2 fold change); higher = more stays soluble; pooled small domains, quantitative proteomics; conditions: stress: 50 degC
Quantity measured: soluble fraction (log2)
Form: value (number only, do not type unit).

Here is how some sequences turned out for soluble fraction (log2).
Input sequence	soluble fraction (log2)
HMLDKIRTYIDNSFTGVNETKKVKELKDELFENLKEKYNDQIQDGKTEQEAYNSVISGIGDLSELIESVK	0.553
HMIEEIPYSQFMSMLEEGKIDKAEIYQDSIIFSTKPDEQGKAGYYSIAYMKDNVLADRLYDAGVEFTPII	-0.156
HMRPEARAASLSDEERKIFDYLAANGEKTIDNISVAVKMSAADILKNITLMSAKGLVYMPSAGRYGVKGN	-0.00201
HMEDNKLKNEIKNELVSHLEKPYSVEDLADALKYHGSAAFKLIVQELAILERERAVVVTHDGNFKINSS	-0.619
HMKITININIETLSHHIKQSGVPLGRLQESVPDYNEIVTGNKSPTYQQLEKISKLIRVPLGLLVIESPL	0.268

Next sequence, soluble fraction (log2) to be filled in.
Q) Provide soluble fraction (log2) value for the following sequence: HMEGGLIMDRIEKGLQSGVMPDLRGLNLKDALYLLESYVQVQVIGSGGVIKQSIKTGDKFIMGSVIKLEL
A) -0.0813
